System: Lolium perenne (LOLPE)
assay_info: Example B post-emergence herbicidal test, LOLPE
Format: in vivo
conditions_used: Lolium perenne, 312 h, rate 250 g/ha, evaluated after 13 days, scale 0-100, read-out: Post-emergence activity LOLPE (100=total damage to plant; 0=no damage to plant)
Cut-off 70% on pest or weed control at 250 g/ha: below means met, at or above means not met.

In [3]: df
Out[3]:
                                   molecule    label
0  Cc1cc(C)c(C2=C(OC(=O)C(C)(C)C)CC(CC3CCCOC3)C2=O)c(C)c1 (centres unmarked) [Compound P37]  not met
1  CCSC(=O)OC1=C(c2c(C)cc(C)cc2C)C(=O)/C(=C/C2CCN(C(=O)SCC)C2)C1 (centres unmarked) [Compound P47]      met
2  CCc1cc(C)cc(CC)c1C1C(=O)C(CC2CCOCC2)C(CC2CCOCC2)C1=O (centres unmarked) [Compound T12]  not met
3  Cc1cc(C)c(C2C(=O)CC(CC3CCN(C(=O)C(Cl)(Cl)Cl)CC3)C2=O)c(C)c1 (centres unmarked) [Compound T105]      met
4  CON1CCC(CC2CC(OC(=O)C(C)(C)C)=C(c3c(C)cc(C)cc3C)C2=O)CC1 (centres unmarked) [Compound P51]  not met
5  Cc1cc(-c2ccc(F)cc2)cc(C)c1C1C(=O)CC(CC2CCOC2)C1=O (centres unmarked) [Compound T158]  not met

====

Listed here: items and their measured pest or weed control at 250 g/ha.
System: Lolium perenne (LOLPE)
assay_info: Example B post-emergence herbicidal test, LOLPE
Format: in vivo
conditions_used: Lolium perenne, 312 h, rate 250 g/ha, evaluated after 13 days, scale 0-100, read-out: Post-emergence activity LOLPE (100=total damage to plant; 0=no damage to plant)
assay_metric: pest or weed control at 250 g/ha (%)

                                   molecule                      assay_metric  unit_annotation  quantitative_result
0  Cc1cc(C)c(C2C(=O)CC(CC3CCN(C(=O)c4cn(C)nc4C(F)F)CC3)C2=O)c(C)c1 (centres unmarked) [Compound T124]  pest or weed control at 250 g/ha                %                   20
1  COC(=O)N1CCC(/C=C2\CC(=O)C(c3c(C)cc(C)cc3C)C2=O)C1 (centres unmarked) [Compound T32]  pest or weed control at 250 g/ha                %                   90
2  COCC1(CC2CCOC2)CC(=O)C(c2c(C)cc(C)cc2C)C1=O (centres unmarked) [Compound T153]  pest or weed control at 250 g/ha                %                   20
3  Cc1cc(C)c(C2C(=O)C/C(=C\C3CCOC(C)(C)C3)C2=O)c(C)c1 (centres unmarked) [Compound T37]  pest or weed control at 250 g/ha                %                  100
4  CC(C)=CC(=O)N1CCC(CC2CC(=O)C(c3c(C)cc(C)cc3C)C2=O)CC1 (centres unmarked) [Compound T104]  pest or weed control at 250 g/ha                %                   80
5  Cc1cc(C)c(C2C(=O)CC(CC3CCN(C(=O)C(C)C)CC3)C2=O)c(C)c1 (centres unmarked) [Compound T80]  pest or weed control at 250 g/ha                %                   90
6  Cc1cc(C)c(C2C(=O)C/C(=C\C3CC[S+]([O-])CC3)C2=O)c(C)c1 (centres unmarked) [Compound T11]  pest or weed control at 250 g/ha                %                   50
7  Cc1cc(-c2ccccc2)cc(C)c1C1C(=O)CC(CC2CCOC2)C1=O (centres unmarked) [Compound T159]  pest or weed control at 250 g/ha                %                  100
